Test system: HDAC (Mouse Liver Extract)
Construct: Mouse liver enzyme (10 mg/ml) was diluted 1:6 with HDAC buffer
Assay: HDAC inhibition assay using Boc-Lys(Ac)-AMC substrate, mouse liver enzyme
Assay type: biochemical
Details: 10 μM
Measurement Type: HDAC Inhibition % (10 μM) (%)

> print(dat)
                                   compound           measurement.type  numeric.readout
1  Nc1ccccc1NC(=O)/C=C/c1ccc(/C=C(/C(=O)NC2CC2)c2ccc(F)cc2)cc1 [Example 59]  HDAC Inhibition % (10 μM)             49.9

1 = Cc1ccc(/C(=C\c2ccc(C(=O)Nc3ccccc3N)cc2)C(=O)NC2CC2)cc1 [Example 104]
2 = O=C(CCCCCCC(=O)Nc1ccc(/C=C(/C(=O)NC2CC2)c2ccc(F)cc2)cc1)NO [Example 165]
// query // task: argmin of HDAC Inhibition % (10 μM) over [ 1 , 2 ] Identify your selection by its label.
// result 1
(1: 58.4%, 2: 96.8%)

Reference source for all entries: patent US8450525B2
